Sourced from patent US9062071B2

- systemName: UniProtKB Q00987
- assayDetails: fluorescence polarization screening assay (FP IC50)
- Assay type: binding
- setupConditions: class symbols
pIC50: −log10 of the molar value.
observedProperty: pIC50

| compound | pIC50 |
| --- | --- |
| CCC[C@H]1N(C(=O)c2ncccc2C(F)(F)F)CCC[C@@]1(Oc1csc(C(F)(F)F)c1)C(=O)N1Cc2ccc(Cl)cc2C[C@@H]1C[C@H](O)C(=O)O [Compound A164] | 7.00 to 9.00 |
| COCCN1CCN(CC[C@H]2N(C(=O)c3ncccc3C(F)(F)F)CCC[C@@]2(Oc2csc(C(F)(F)F)c2)C(=O)N2CCc3cc(Cl)ccc3C2)CC1 [Compound A118] | 7.00 to 9.00 |
| CCC[C@H]1N(C(=O)c2ncccc2C(F)(F)F)CCC[C@@]1(Oc1csc(C(F)(F)F)c1)C(=O)N1Cc2ccc(Cl)cc2C[C@@H]1CN(C)C(=O)[C@@H](C)OC [Compound A151] | 7.00 to 9.00 |

Exercise: Quickly give me recorded pIC50 for CCC[C@H]1N(C(=O)c2ncccc2C(F)(F)F)CCC[C@@]1(Oc1csc(C(F)(F)F)c1)C(=O)N1CCc2ccc(C#N)cc2C1 [Compound A5]
Solution: 4.70 to 7.00

Exercise: Quickly give me recorded pIC50 for CCC[C@H]1N(C(=O)c2ncccc2C(F)(F)F)CCC[C@@]1(Oc1csc(C(F)(F)F)c1)C(=O)N1CCc2sc(Cl)cc2C1CCCN1CCOCC1 (some centres unmarked) [Compound A32]
Solution: 4.70 to 7.00

Exercise: Quickly give me recorded pIC50 for COCCN1CCN(CC[C@H]2N(C(=O)c3ncccc3C(F)(F)F)CCC[C@@]2(Oc2csc(C(F)(F)F)c2)C(=O)N2CCc3cc(Cl)ccc3C2COC)CC1 (some centres unmarked) [Compound A21]
Solution: 7.00 to 9.00

Exercise: Quickly give me recorded pIC50 for CCC[C@H]1N(C(=O)c2ncccc2C(F)(F)F)CCC[C@@]1(Oc1csc(C(F)(F)F)c1)C(=O)N1CCc2sc(Cl)cc2C1C(=O)NC (some centres unmarked) [Compound A34]
Solution: 4.70 to 7.00

Exercise: Quickly give me recorded pIC50 for CCC[C@H]1N(C(=O)c2ncccc2C(F)(F)F)CCC[C@@]1(Oc1csc(C(F)(F)F)c1)C(=O)N1CCc2cc(F)ccc2C1CC(=O)O (some centres unmarked) [Compound A56]
Solution: 7.00 to 9.00

Exercise: Quickly give me recorded pIC50 for CCC[C@H]1N(C(=O)c2ncccc2C(F)(F)F)CCC[C@@]1(Oc1csc(C(F)(F)F)c1)C(=O)N1CCc2cc(Br)ccc2C1CCC(=O)O (some centres unmarked) [Compound A58]
Solution: 7.00 to 9.00

Exercise: Quickly give me recorded pIC50 for CCC[C@H]1N(C(=O)c2ncccc2C(F)(F)F)CCC[C@@]1(Oc1csc(C(F)(F)F)c1)C(=O)N1Cc2ccc(Cl)cc2C[C@@H]1CCC(=O)NO [Compound A145]
Solution: 7.00 to 9.00

Exercise: Quickly give me recorded pIC50 for CCC[C@H]1N(C(=O)c2ncccc2C(F)(F)F)CCC[C@@]1(Oc1csc(C(F)(F)F)c1)C(=O)N1Cc2ccc(F)cc2C[C@@H]1C(=O)NCCO [Compound A150]
Solution: 7.00 to 9.00

----------
- systemName: HDM2 protein (Homo sapiens, UniProt Q00987)
- Sequence (Q00987 whole entry): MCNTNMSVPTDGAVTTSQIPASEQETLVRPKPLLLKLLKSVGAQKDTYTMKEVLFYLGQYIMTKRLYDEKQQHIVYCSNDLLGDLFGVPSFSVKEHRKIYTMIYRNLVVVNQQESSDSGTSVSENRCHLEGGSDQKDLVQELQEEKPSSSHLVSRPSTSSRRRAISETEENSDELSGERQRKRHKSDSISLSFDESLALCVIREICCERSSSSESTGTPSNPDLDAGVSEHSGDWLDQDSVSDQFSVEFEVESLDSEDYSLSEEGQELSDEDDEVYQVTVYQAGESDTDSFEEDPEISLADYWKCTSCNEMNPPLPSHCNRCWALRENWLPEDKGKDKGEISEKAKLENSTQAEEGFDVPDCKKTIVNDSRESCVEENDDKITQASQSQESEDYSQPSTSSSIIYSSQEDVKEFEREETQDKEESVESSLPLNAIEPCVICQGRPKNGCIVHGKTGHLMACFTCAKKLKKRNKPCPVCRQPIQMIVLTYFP
- assayDetails: fluorescence polarization screening assay (FP IC50)
- Format: binding
- setupConditions: class symbols
Listed here: items and their measured IC50.

Some entries whose results are on file:
| molecule | IC50 |
| --- | --- |
| CCC[C@H]1N(C(=O)c2ncccc2C(F)(F)F)CCC[C@@]1(Oc1csc(C(F)(F)F)c1)C(=O)N1Cc2cc(F)ccc2C[C@H]1CCC(=O)O | 1 to 100 nM |
| CCC[C@H]1N(C(=O)c2ncccc2C(F)(F)F)CCC[C@@]1(Oc1csc(C(F)(F)F)c1)C(=O)N1CCc2cc(F)ccc2C1CCC(=O)NCc1nn[nH]n1 (some centres unmarked) [Compound A60] | 1 to 100 nM |
| CCC[C@H]1N(C(=O)c2ncccc2C(F)(F)F)CCC[C@@]1(Oc1csc(C(F)(F)F)c1)C(=O)N1CCc2cc(F)ccc2C1C(=O)O (some centres unmarked) [Compound A101] | 1 to 100 nM |
| CCC[C@H]1N(C(=O)c2ncccc2C(F)(F)F)CCC[C@@]1(Oc1csc(C(F)(F)F)c1)C(=O)N1CCc2cc(Cl)ccc2C1CC(C)(C)C(=O)O (some centres unmarked) [Compound A65] | 1 to 100 nM |
| CCC[C@H]1N(C(=O)c2ncccc2C(F)(F)F)CCC[C@@]1(Oc1csc(C(F)(F)F)c1)C(=O)N1CCc2cc(SC)ccc2C1 | 101 to 20000 nM |
| CCC[C@H]1N(C(=O)c2ncccc2C(F)(F)F)CCC[C@@]1(Oc1csc(C(F)(F)F)c1)C(=O)N1CCc2sc(Cl)cc2C1CC(C)(C)C(=O)O (some centres unmarked) [Compound A26] | 1 to 100 nM |
| CCC[C@H]1N(C(=O)c2ncccc2C(F)(F)F)CCC[C@@]1(Oc1csc(C(F)(F)F)c1)C(=O)N1CCc2cc(Cl)ccc2[C@@H]1CCC(=O)NC#N | 1 to 100 nM |
| CCC[C@H]1N(C(=O)c2ncccc2C(F)(F)F)CCC[C@@]1(Oc1csc(C(F)(F)F)c1)C(=O)N1CCc2cc(Cl)ccc2[C@H]1CCC(=O)N1CCC(C(=O)O)CC1 | 1 to 100 nM |
| CCC[C@H]1N(C(=O)c2ncccc2C(F)(F)F)CCC[C@@]1(Oc1csc(C(F)(F)F)c1)C(=O)N1CCc2cc(F)ccc2C1CCCO (some centres unmarked) [Compound A54] | 101 to 20000 nM |
| CCC[C@H]1N(C(=O)c2ncccc2C(F)(F)F)CCC[C@@]1(Oc1csc(C(F)(F)F)c1)C(=O)N1CCc2cc(Cl)ccc2C1CCCC(=O)O (some centres unmarked) [Compound A74] | 1 to 100 nM |

Switching to the query record.
Exercise: Quickly give me recorded IC50 for CCC[C@H]1N(C(=O)c2ncccc2C(F)(F)F)CCC[C@@]1(Oc1csc(C(F)(F)F)c1)C(=O)N1CCc2cc(Cl)ccc2C1CC(C)(C)C(=O)O (some centres unmarked) [Compound A108]
Solution: 1 to 100 nM

----------
- systemName: HDM2 protein (Homo sapiens, UniProt Q00987)
- assayDetails: fluorescence polarization screening assay (FP IC50)
- Format: binding
- setupConditions: class symbols
observedProperty: IC50

Some entries whose results are on file:
| compound | observedProperty | valueReported |
| --- | --- | --- |
| CCC[C@H]1N(C(=O)c2ncccc2C(F)(F)F)CCC[C@@]1(Oc1csc(C(F)(F)F)c1)C(=O)N1CCc2cc(Cl)ccc2C1CCC(=O)NS(C)(=O)=O (some centres unmarked) [Compound A61] | IC50 | 1 to 100 nM |
| CCC[C@H]1N(C(=O)c2ncccc2C(F)(F)F)CCC[C@@]1(Oc1csc(C(F)(F)F)c1)C(=O)N1Cc2ccc(Cl)cc2C[C@@H]1C(=O)N1CCC[C@@H](O)C1 [Compound A170] | IC50 | 1 to 100 nM |
| CCC[C@H]1N(C(=O)c2ncccc2C(F)(F)F)CCC[C@@]1(Oc1ccc(OC(F)(F)F)cc1)C(=O)N1CCc2cc(Cl)ccc2[C@@H]1CCC(=O)O [Compound A111] | IC50 | 1 to 100 nM |
| CCC[C@H]1N(C(=O)c2ncccc2C(F)(F)F)CCC[C@@]1(Oc1csc(C(F)(F)F)c1)C(=O)N1CCc2cc(Cl)ccc2C1CC(C(=O)O)C(C)C (some centres unmarked) [Compound A180] | IC50 | 101 to 20000 nM |
| CCC[C@H]1N(C(=O)c2ncccc2C(F)(F)F)CCC[C@@]1(Oc1csc(C(F)(F)F)c1)C(=O)N1Cc2sc(Cl)cc2CC1C(=O)O (some centres unmarked) [Compound A172] | IC50 | 1 to 100 nM |

Exercise: Report value only: IC50, HDM2 protein (Homo sapiens, UniProt Q00987), CCC[C@H]1N(C(=O)c2ncccc2C(F)(F)F)CCC[C@@]1(Oc1csc(C(F)(F)F)c1)C(=O)N1CCc2sc(Cl)cc2C1CCCN1CCCC1 (some centres unmarked) [Compound A33]
Solution: 101 to 20000 nM

Exercise: Report value only: IC50, HDM2 protein (Homo sapiens, UniProt Q00987), CCC[C@H]1N(C(=O)c2ncccc2C(F)(F)F)CCC[C@@]1(Oc1csc(C(F)(F)F)c1)C(=O)N1CCc2sc(Cl)cc2C1CC(C)(C)C(=O)O (some centres unmarked) [Compound A25]
Solution: 1 to 100 nM

Exercise: Report value only: IC50, HDM2 protein (Homo sapiens, UniProt Q00987), CCC[C@H]1N(C(=O)c2ncccc2C(F)(F)F)CCC[C@@]1(Oc1csc(C(F)(F)F)c1)C(=O)N1CCc2cc(Cl)ccc2C1CCC(=O)NS(C)(=O)=O (some centres unmarked) [Compound A63]
Solution: 1 to 100 nM

Exercise: Report value only: IC50, HDM2 protein (Homo sapiens, UniProt Q00987), CCC[C@H]1N(C(=O)c2ncccc2C(F)(F)F)CCC[C@@]1(Oc1csc(C(F)(F)F)c1)C(=O)N1CCc2cc(N(C)C)ccc2C1 [Compound A83]
Solution: 101 to 20000 nM

Exercise: Report value only: IC50, HDM2 protein (Homo sapiens, UniProt Q00987), CCC[C@H]1N(C(=O)c2ncccc2C(F)(F)F)CCC[C@@]1(Oc1csc(C(F)(F)F)c1)C(=O)N1CCc2cc(F)ccc2C1 [Compound A48]
Solution: 101 to 20000 nM

Exercise: Report value only: IC50, HDM2 protein (Homo sapiens, UniProt Q00987), CCC[C@H]1N(C(=O)c2ncccc2C(F)(F)F)CCC[C@@]1(Oc1csc(C(F)(F)F)c1)C(=O)N1CCc2c(ccc(Cl)c2Cl)C1 [Compound A86]
Solution: 101 to 20000 nM
